# credit: patent US8877798B2

- Assay system: 5-HT uptake, rat brain synaptosomes (Rattus norvegicus (Rat), UniProt P31652)
- Test details: 5-HT uptake inhibition in rat brain synaptosomes
- Assay type: biochemical
- Test parameters: [3H]5-HT, rat brain synaptosomes, 15 min at 37° C.; read-out: Uptake IC50 (nM) 5-HT
Test readout: log10(IC50) (log10 of the value in nM)

Compound | Experimental result
CN1CC2CC2(c2cccc3ccccc23)C1 (stereo not drawn) | 2.08
CCCCN1CC2CC2(c2ccc(Cl)c(Cl)c2)C1 (stereo not drawn) | 3.08
CCCN1CC2CC2(c2ccc(Cl)c(Cl)c2)C1 (stereo not drawn) | 2.67
Cc1cc(C23CC2CN(C)C3)ccc1F (stereo not drawn) | 2.30
CN1CC2CC2(c2ccc(F)c(F)c2)C1 (stereo not drawn) | 2.60
Cc1ccc(C23CNCC2C3)cc1F (stereo not drawn) | 2.42
CCN1CC2C[C@]2(c2ccc(Cl)c(Cl)c2)C1 (stereo partly drawn) | 1.65
CN1CC2C[C@@]2(c2ccc(F)c(Cl)c2)C1 (stereo partly drawn) | 2.56
CCN1CC2C[C@@]2(c2ccc(Cl)c(Cl)c2)C1 (stereo partly drawn) | 1.75
CCOc1ccc2cc(C34CC3CN(C)C4)ccc2c1 (stereo not drawn) | 2.32
Cc1ccc([C@]23CC2CN(C)C3)cc1F (stereo partly drawn) | 2.85
CC(C)N1CC2CC2(c2ccc(Cl)c(Cl)c2)C1 (stereo not drawn) | 1.48
